# maps each entry to its Sensitization to oxacillin in broth microdilution assays
Tested on: NCTC 13142
experimental details: Oxacillin MIC and sensitization broth growth assay (broth microdilution, CLSI)
Assay type: cell-based, Staphylococcus aureus (MRSA)
measurement context: NCTC 13142, PNAs with EJH-L1 or HIV-1 Tat carrier, data not shown
I only need the number, in fold, no unit after it.

YGRKKRRQRRR-O-catcaatatc-CONH2 [A73-Tat]    2

Now let's try a different one.
Query :: Data request, read-out Sensitization to oxacillin in broth microdilution assays, for MINWKLRLKNK-O-catcaatatc-CONH2 [A73-EJH]
Result :: 2

###

Test system: NCTC 13142
experimental details: Oxacillin MIC and sensitization broth growth assay (broth microdilution, CLSI)
Type: cell-based, Staphylococcus aureus (MRSA)
measurement context: NCTC 13142, 5 μM PNA, MHB, 35 °C, 24 h, scored visually, n=2
# maps each entry to its Oxacillin MIC with anti-mecA PNA treatment
I only need the number, in µg/mL, no unit after it.

The examples below pair each entry with its known result.
KFFKFFKFFK-O-caatatcctc-CONH2 [A101, anti-mecA PNA (−10 to −1) conjugated to cell-penetrating peptide …]    512
KFFKFFKFFK-eg1-atcaatatcc-CONH2 [A82, anti-mecA PNA (−8 to +2) conjugated to cell-penetrating peptide …]    128

Query :: Enter reported Oxacillin MIC with anti-mecA PNA treatment observed with NCTC 13142 for KFFKFFKFFK-O-catcaatatc-CONH2 [A73, anti-mecA PNA (−7 to +3) conjugated to cell-penetrating peptide …]
Result :: 128

Query :: Enter reported Oxacillin MIC with anti-mecA PNA treatment observed with NCTC 13142 for KFFKFFKFFK-eg1-ttcatcaata-CONH2 [A55, anti-mecA PNA (−5 to +5) conjugated to cell-penetrating peptide …]
Result :: 256
